Each item that follows carries a reported log10(Ki).
Target: 5-hydroxytryptamine receptor 2B (Homo sapiens)
Sequence (P41595 whole entry): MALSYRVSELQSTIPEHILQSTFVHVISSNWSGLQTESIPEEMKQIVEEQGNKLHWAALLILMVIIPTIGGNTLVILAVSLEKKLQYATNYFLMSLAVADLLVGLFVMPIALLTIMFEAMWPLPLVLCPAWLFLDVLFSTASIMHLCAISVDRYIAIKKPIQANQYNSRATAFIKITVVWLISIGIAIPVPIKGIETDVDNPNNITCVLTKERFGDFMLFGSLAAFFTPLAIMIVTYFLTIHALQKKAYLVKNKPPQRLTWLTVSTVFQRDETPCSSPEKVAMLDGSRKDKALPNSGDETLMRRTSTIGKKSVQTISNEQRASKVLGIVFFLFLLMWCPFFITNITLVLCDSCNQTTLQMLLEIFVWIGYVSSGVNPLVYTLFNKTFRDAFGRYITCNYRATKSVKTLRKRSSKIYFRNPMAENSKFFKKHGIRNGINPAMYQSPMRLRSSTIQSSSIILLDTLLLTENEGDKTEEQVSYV
experimental.readout: log10(Ki) (log10 of the value in nM)

[
  {
    "compound": "CC(N)Cn1ccc2cc(F)c(Cl)cc21 (configuration not stated)",
    "experimental.readout": "log10(Ki)",
    "measured.result": 0.73
  },
  {
    "compound": "NCCc1c[nH]c2ccccc12",
    "experimental.readout": "log10(Ki)",
    "measured.result": 2.01
  },
  {
    "compound": "FC(F)(F)c1ccc(N2CCNCC2)nc1Cl",
    "experimental.readout": "log10(Ki)",
    "measured.result": 1.96
  },
  {
    "compound": "CCCN(CCC)C1CCc2cccc(O)c2C1 (configuration not stated)",
    "experimental.readout": "log10(Ki)",
    "measured.result": 3.61
  },
  {
    "compound": "CCCN1CCCC2Cc3[nH]ncc3CC21 (configuration not stated)",
    "experimental.readout": "log10(Ki)",
    "measured.result": 2.48
  },
  {
    "compound": "Cc1nc(-c2ccc(-c3ccc(C(=O)N4CCc5cc6c(cc54)C4(CCN(C)CC4)CO6)cc3)c(C)c2)no1",
    "experimental.readout": "log10(Ki)",
    "measured.result": 3.13
  },
  {
    "compound": "Cc1cc(NC(=O)Nc2ccc3c(ccn3C)c2)sn1",
    "experimental.readout": "log10(Ki)",
    "measured.result": 2.10
  }
]
